# targetOrSystem: T1, recombinant SARS-CoV-2 Spike RBD domain, BQ.1.1 variant (SARS-CoV-2)
# T1 construct: also called RBD BQ.1.1. variant
# protocolSummary: competition ELISA, blocking of RBD binding to ACE2 ectodomain
reportedEndpoint: Blocking %

binder	obsValue
SPK002M A2 antibody (antibody, human IgG1, kappa, V domains shown) VH: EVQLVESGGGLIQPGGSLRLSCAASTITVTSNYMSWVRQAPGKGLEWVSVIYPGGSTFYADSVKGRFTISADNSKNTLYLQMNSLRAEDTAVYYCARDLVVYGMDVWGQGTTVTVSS VL: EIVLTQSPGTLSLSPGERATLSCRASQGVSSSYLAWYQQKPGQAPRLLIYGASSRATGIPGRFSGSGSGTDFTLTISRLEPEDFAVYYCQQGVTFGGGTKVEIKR	97%
SPK002M A3 antibody (antibody, human IgG1, kappa, V domains shown) VH: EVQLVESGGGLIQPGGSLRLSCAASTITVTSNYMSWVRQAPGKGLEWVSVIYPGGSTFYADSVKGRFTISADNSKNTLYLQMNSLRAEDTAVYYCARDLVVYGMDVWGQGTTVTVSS VL: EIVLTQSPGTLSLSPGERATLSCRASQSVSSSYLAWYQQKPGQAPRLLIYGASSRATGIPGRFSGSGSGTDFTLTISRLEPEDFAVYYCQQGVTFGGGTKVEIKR	96%

Prompt: For the binder SPK002M B1 antibody (antibody, human IgG1, kappa, V domains shown) VH: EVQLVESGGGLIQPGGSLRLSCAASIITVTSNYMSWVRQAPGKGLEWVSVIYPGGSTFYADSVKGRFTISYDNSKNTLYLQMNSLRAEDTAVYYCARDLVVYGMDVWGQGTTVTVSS VL: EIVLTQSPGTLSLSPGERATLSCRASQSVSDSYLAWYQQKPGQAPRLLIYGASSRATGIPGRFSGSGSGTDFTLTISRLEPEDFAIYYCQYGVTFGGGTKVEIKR , what Blocking % is on record?
Response: 97%

Values from patent US12281155
